Measured AC50 on Progesterone receptor (Homo sapiens) follows.
Sequence (P06401 whole entry): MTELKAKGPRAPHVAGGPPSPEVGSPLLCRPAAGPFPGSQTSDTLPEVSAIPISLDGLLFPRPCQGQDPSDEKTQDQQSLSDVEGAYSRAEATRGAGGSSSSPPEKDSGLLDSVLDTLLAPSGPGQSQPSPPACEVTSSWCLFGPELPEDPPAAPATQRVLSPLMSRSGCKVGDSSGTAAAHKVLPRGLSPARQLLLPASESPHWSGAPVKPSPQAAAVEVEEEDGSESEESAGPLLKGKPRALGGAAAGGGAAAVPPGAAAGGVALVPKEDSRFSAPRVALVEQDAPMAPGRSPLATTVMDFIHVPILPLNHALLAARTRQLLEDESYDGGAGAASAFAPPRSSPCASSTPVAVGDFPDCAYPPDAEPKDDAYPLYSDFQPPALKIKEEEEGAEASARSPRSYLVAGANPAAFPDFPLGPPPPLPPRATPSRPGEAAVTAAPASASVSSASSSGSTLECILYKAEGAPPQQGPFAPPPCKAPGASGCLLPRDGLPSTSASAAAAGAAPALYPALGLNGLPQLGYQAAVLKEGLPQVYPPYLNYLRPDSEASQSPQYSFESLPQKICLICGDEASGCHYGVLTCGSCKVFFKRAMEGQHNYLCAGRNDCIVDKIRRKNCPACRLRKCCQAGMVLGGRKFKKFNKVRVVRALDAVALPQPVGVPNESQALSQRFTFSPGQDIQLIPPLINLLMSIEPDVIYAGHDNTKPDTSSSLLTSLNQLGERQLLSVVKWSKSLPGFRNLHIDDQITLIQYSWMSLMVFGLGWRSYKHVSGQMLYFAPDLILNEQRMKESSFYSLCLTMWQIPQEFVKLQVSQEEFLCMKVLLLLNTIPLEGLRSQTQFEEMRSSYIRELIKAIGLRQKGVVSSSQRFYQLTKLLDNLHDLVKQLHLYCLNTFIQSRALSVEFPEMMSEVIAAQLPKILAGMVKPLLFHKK

Compound | AC50
CCN(CC)CCNc1ccc(CO)c2sc3ccccc3c(=O)c12 | > 30 µM
CC(C)(C)NC[C@H](O)COc1ccccc1C1CCCC1 | > 30 µM
COC1=C(OC)C(=O)C(C/C=C(\C)CC/C=C(\C)CC/C=C(\C)CC/C=C(\C)CC/C=C(\C)CC/C=C(\C)CC/C=C(\C)CC/C=C(\C)CC/C=C(\C)CCC=C(C)C)=C(C)C1=O | > 30 µM
Cc1ccccc1OCC(O)CO (stereo not drawn) | > 30 µM
C[C@]12CC[C@@H]3c4ccc(O)cc4CC[C@H]3[C@@H]1C[C@@H](O)[C@@H]2O | 3.3 µM
Cc1oc(=O)oc1CN1CCN(c2cc3c(cc2F)c(=O)c(C(=O)O)c2n3C(C)S2)CC1 (stereo not drawn) | > 30 µM
C[S+](CC[C@H](N)C(=O)[O-])C[C@H]1O[C@@H](n2cnc3c(N)ncnc32)[C@H](O)[C@@H]1O (stereo partly drawn) | > 30 µM
Cc1cc(NS(=O)(=O)c2ccc(N)cc2)nc(C)n1 | > 30 µM
COc1cc([C@@H]2c3cc4c(cc3[C@H](O)[C@H]3COC(=O)[C@H]23)OCO4)cc(OC)c1OC | > 30 µM
COc1ccc2c(c1)N(C[C@H](C)CN(C)C)c1ccccc1S2 | > 30 µM
O=[N+]([O-])O[C@@H]1CO[C@H]2[C@@H]1OC[C@@H]2O [ISOSORBIDE MONONITRATE] | > 30 µM
COc1ccccc1N1CCN(CC(O)COc2cccc3ccccc23)CC1 (stereo not drawn) | > 30 µM
CCOc1ccccc1C(N)=O [ETHENZAMIDE] | > 30 µM
CC(=O)Oc1ccc2c(c1)CC[C@@H]1[C@@H]2CC[C@]2(C)[C@@H](O)CC[C@@H]12 [ESTRADIOL ACETATE] | 0.209 µM
CCOC(=O)[C@H](CCc1ccccc1)N[C@@H](C)C(=O)N1[C@H](C(=O)O)C[C@H]2CCCC[C@@H]21 | > 30 µM
OC(c1ccccc1)(c1ccccc1)C12CC[N+](CCOCc3ccccc3)(CC1)CC2 | > 30 µM
CN(C)CC(c1ccc(O)cc1)C1(O)CCCCC1 (stereo not drawn) | > 30 µM
CN(C)[C@@H](c1cccc(O)c1)[C@H]1CCCC[C@H]1O | > 30 µM
CC(C)(C)N1CCC(c2ccccc2)(c2ccccc2)CC1 | > 30 µM
CC[N+]1(C)[C@@H]2CC(OC(=O)[C@H](CO)c3ccccc3)C[C@H]1[C@@H]1O[C@@H]12 (stereo partly drawn) | > 30 µM
C[N+]1(CCCCC[N+]2(C)CCCC2)CCCC1 | > 30 µM
CO[C@H]1C[C@@H]2CC[C@@H](C)[C@@](O)(O2)C(=O)C(=O)N2CCCC[C@H]2C(=O)O[C@H]([C@H](C)C[C@@H]2CC[C@@H](O)[C@H](OC)C2)CC(=O)[C@H](C)/C=C(\C)[C@@H](O)[C@@H](OC)C(=O)[C@H](C)C[C@H](C)/C=C/C=C/C=C/1C | > 30 µM
C=CCc1ccccc1OCC(O)CNC(C)C (stereo not drawn) | > 0.3 µM
CN(C)S(=O)(=O)c1ccc2c(c1)N(CCCN1CCC(CCO)CC1)c1ccccc1S2 | > 30 µM
CCc1oc2ccccc2c1C(=O)c1cc(I)c(O)c(I)c1 | 4.27 µM
CC1=C(/C=C/C(C)=C/C=C/C(C)=C/C=C/C=C(C)/C=C/C=C(C)/C=C/C2=C(C)CCCC2(C)C)C(C)(C)CCC1 | > 30 µM
CC(C)(C)C(=O)C(Oc1ccc(Cl)cc1)n1ccnc1 (stereo not drawn) | > 30 µM
O=[N+]([O-])c1cn2c(n1)OC[C@@H](OCc1ccc(OC(F)(F)F)cc1)C2 | > 30 µM
NCC(CC(=O)O)c1ccc(Cl)cc1 (stereo not drawn) | > 30 µM
CN1CCN(C2=Nc3ccccc3Sc3ccc(Cl)cc32)CC1 | > 30 µM
Clc1ccc(C(OCCN2CCCCC2)c2ccccc2)cc1 (stereo not drawn) | > 30 µM
CCN(CC)CCOC(=O)C(c1ccccc1)C1CCCCC1 (stereo not drawn) | > 30 µM
CCCCOC(=O)C(=O)[C@H]1[C@H](C)C[C@H]2[C@@H]3C[C@H](F)C4=CC(=O)C=C[C@]4(C)[C@H]3[C@@H](O)C[C@@]21C | 0.711 µM
